These entries and their values trace back to patent US4705799A.

Test system: Staphylococcus aureus
Assay: In vivo efficacy of compounds administered subcutaneously in mouse intraperitoneal infections
Conditions: sc, 168 h; mouse i.p. Staphylococcus aureus infection; subcutaneous; dosed at infection and 4 h post-infection; 7 days; read-out: ED50 (50 percent effective dose)
Exercise: for every item that follows, state its recorded log10 ED50.
Quick note: numbers are log10 of ED50, with mg/kg as the unit.

Any idea what log10 ED50 came out for CC(=O)NCC1CN(c2ccc(C(=O)COC(C)=O)cc2)C(=O)O1 (single isomer, unassigned) [Example 183] on Staphylococcus aureus?
0.53

Lab note: need log10 ED50 with Staphylococcus aureus for entry COC(=O)N(C)CC1CN(c2ccc(S(C)(=O)=O)cc2)C(=O)O1 (centres unmarked) [Example 128] , please look it up.
1.53

Record CC(=O)NCC1CN(c2ccc(C=O)cc2)C(=O)O1 (single isomer, unassigned) [Example 185] : what is its log10 ED50 with Staphylococcus aureus?
1.56

Look up log10 ED50 with Staphylococcus aureus for this molecule: CS(=O)(=O)c1ccc(N2CC(CN)OC2=O)cc1 (single isomer, unassigned) [Example 11]
1.21

Notebook: pull reported log10 ED50 for Staphylococcus aureus, entry CCCCCCN(CC1CN(c2ccc(S(C)(=O)=O)cc2)C(=O)O1)C(C)=O (racemic) [Example 122]
1.21

# query: log10 ED50 | item CC(=O)NCC1CN(c2ccc(F)cc2)C(=O)O1 (centres unmarked) [Example 88] | system: Staphylococcus aureus
1.34

I'm curious: which log10 ED50 was measured for CCc1ccc(N2CC(CNC(C)=O)OC2=O)cc1 (single isomer, unassigned) [Example 133] tested on Staphylococcus aureus?
0.34
